The reported measurements were obtained from the supplement of paper PMC10567573.

B1: LCOR (parent)
chain: YKVKERLGTLKNPPKKKMKLMSG

Variants of: B1
Test: protein stability index of a GFP-peptide fusion (GPS, HEK-293T) (PSI 1-6); higher = more stable;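 further: lentivirally expressed fusions sorted by FACS into six bins by GFP to DsRed ratio, PSI derived from sequencing read proportions per bin multiplied by bin number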
Details: c terminus: native
Returns Fulfilled if the recorded protein stability index is greater than or equal to 2, and Not fulfilled otherwise.

1. YKVKERLLTLKNPPKKKMKLMSG [G8L] = Fulfilled
2. YKVKERLGTLKNPPKKKMKLMSH [G23H] = Fulfilled
3. YKVKERLGTLKNPPKNKMKLMSG [K16N] = Not fulfilled
4. YKVKERLGTLKNPPKKKMKQMSG [L20Q] = Fulfilled
5. YKQKERLGTLKNPPKKKMKLMSG [V3Q] = Fulfilled
6. YKVKERLGTQKNPPKKKMKLMSG [L10Q] = Not fulfilled
7. YKVKERLGTLKNPPKKKMVLMSG [K19V] = Fulfilled
8. YKVKERLGTLKNPPKKKMKLMTG [S22T] = Fulfilled
9. YKVKERLGTLKPPPKKKMKLMSG [N12P] = Fulfilled
10. YKVKERLGTLKNEPKKKMKLMSG [P13E] = Fulfilled
11. YKVKERIGTLKNPPKKKMKLMSG [L7I] = Fulfilled
12. YKVKERLGLLKNPPKKKMKLMSG [T9L] = Fulfilled
13. YKVKERLGTLKNPPKMKMKLMSG [K16M] = Not fulfilled
14. YKVKERLGTMKNPPKKKMKLMSG [L10M] = Fulfilled
15. AKVKERLGTLKNPPKKKMKLMSG [Y1A] = Fulfilled
16. YKVKERLGTLKNPPLKKMKLMSG [K15L] = Not fulfilled
17. YKVKERLGTLKNPPKKGMKLMSG [K17G] = Not fulfilled
18. YKVKERLGTLKNPPKKYMKLMSG [K17Y] = Fulfilled
19. YKFKERLGTLKNPPKKKMKLMSG [V3F] = Not fulfilled
20. YKVKERLGTLKNPPKSKMKLMSG [K16S] = Not fulfilled
21. YKVKERLGTFKNPPKKKMKLMSG [L10F] = Fulfilled
22. YKVQERLGTLKNPPKKKMKLMSG [K4Q] = Not fulfilled
